This collection of values is drawn from ChEMBL document CHEMBL1138992.

molecular target: Thrombopoietin receptor (Homo sapiens); experiment: Agonist activity as induced proliferation in Ba/F3-hTpoR murine lymphocyte expressing human TPOR; assay type: functional
measuredProperty: Efficacy (%)
Please respond with the number in % and leave the unit unwritten.

Exam item: Quick one: Efficacy for CC(C)(C)c1ccc(-c2ccc(-c3nc4cc(/C=C5\SC(=S)NC5=O)ccc4[nH]3)o2)cc1 ?
Marked response: 142

Exam item: Quick one: Efficacy for CC(C)(C)c1ccc(-c2cccc(-c3nc4cc(/C=C5\SC(=S)NC5=O)ccc4[nH]3)c2)cc1 ?
Marked response: 137

Exam item: Quick one: Efficacy for CC(C)(C)c1ccc(-c2cccc(-c3nc4cc(/C=C5\SC(=S)NC5=O)ccc4[nH]3)n2)cc1 ?
Marked response: 90

Exam item: Quick one: Efficacy for CC(C)(C)c1ccc(-c2cccc(-c3nc4cc(CC(C(=O)O)C(=O)O)ccc4[nH]3)n2)cc1 ?
Marked response: 13

Exam item: Quick one: Efficacy for O=C1NC(=S)S/C1=C\c1ccc2[nH]c(-c3cccc(-c4ccc(Cl)c(Cl)c4)n3)nc2c1 ?
Marked response: 19

Exam item: Quick one: Efficacy for Cc1ccc(-c2csc(-c3nc4cc(/C=C5\SC(=S)NC5=O)ccc4[nH]3)c2)cc1C ?
Marked response: 123

Exam item: Quick one: Efficacy for Cc1ccc(-c2cccc(-c3nc4cc(/C=C5\SC(=S)NC5=O)ccc4[nH]3)n2)cc1C ?
Marked response: 73

Exam item: Quick one: Efficacy for Cc1ccc(-c2ccc(-c3nc4cc(/C=C5\SC(=S)NC5=O)ccc4[nH]3)s2)cc1C ?
Marked response: 117

Exam item: Quick one: Efficacy for C/C(=C\c1ccc2[nH]c(-c3cccc(-c4ccc(C(C)(C)C)cc4)n3)nc2c1)C(=O)O ?
Marked response: 109

Exam item: Quick one: Efficacy for CC(C)(C)c1ccc(-c2cccc(-c3nc4cc(/C=C5\SC(=S)NC5=O)ccc4[nH]3)c2O)cc1 ?
Marked response: 134
